The entries below are paired with their reported MIC.
# Tested on: Pseudomonas aeruginosa
# protocolDetails: Antimicrobial activity against Pseudomonas aeruginosa ATCC 10145 after 24 hrs by broth microdilution method
# Assay type: functional
# protocolConditions: ATCC 10145, 24 h
quantity: MIC (µg/mL)

>>> assayvalue("CC(C)=NNC(=O)c1nc(C(C)C)cs1")
125
>>> assayvalue("CC(=O)N1N=C(c2nc(C(C)C)cs2)OC1c1ccc(N(C)C)cc1 (stereo not drawn)")
16
>>> assayvalue("C/C(=N/NC(=O)c1nc(C(C)C)cs1)c1ccc(O)cc1")
125
>>> assayvalue("C/C(=N/NC(=O)c1nc(C(C)C)cs1)c1ccc([N+](=O)[O-])cc1")
250
>>> assayvalue("CC(C)c1csc(C(=O)N/N=C/c2ccc([N+](=O)[O-])cc2)n1")
125
>>> assayvalue("CC(C)c1csc(C(=O)N/N=C/c2ccc(O)cc2)n1")
16

Cited source: ChEMBL document CHEMBL1155277
